Quick reference: IC50 of the listed items.
# Experimental System: PTP1B (Homo sapiens)
# Sequence (P18031 whole entry): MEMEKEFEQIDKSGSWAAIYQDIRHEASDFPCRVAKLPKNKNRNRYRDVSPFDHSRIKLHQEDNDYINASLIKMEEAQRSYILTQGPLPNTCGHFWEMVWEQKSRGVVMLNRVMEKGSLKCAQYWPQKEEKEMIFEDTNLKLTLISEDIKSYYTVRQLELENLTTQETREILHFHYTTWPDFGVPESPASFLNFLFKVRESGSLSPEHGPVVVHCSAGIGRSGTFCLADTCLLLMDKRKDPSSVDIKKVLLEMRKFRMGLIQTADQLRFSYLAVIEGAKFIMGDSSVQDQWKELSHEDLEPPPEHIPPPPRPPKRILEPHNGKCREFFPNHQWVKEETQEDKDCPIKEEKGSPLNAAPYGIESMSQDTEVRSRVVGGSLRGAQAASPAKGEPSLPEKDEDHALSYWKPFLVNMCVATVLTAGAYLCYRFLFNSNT
# Assay Text: PTP activity assay with pNPP substrate (IC50, Ki, mode of inhibition)
# Type: biochemical
# Recorded Conditions: pNPP 2 mM, pH 7.0, 25° C.; read-out: IC50, nM PTP1B
# Experimental: PTP activity was assayed using p-nitrophenyl phosphate (pNPP) as a substrate in DMG buffer (50 mM DMG. pH 7.0, 1 mM EDTA, 150 mM NaCl, 2 mM DTT, 0.1 mg/mL BSA) at 25° C. The assays were performed in 96-well plates. […] The reaction rate was measured using a SpectraMax Plus 384 Microplate Spectrophotometer (Molecular Devices). […]
*1 amine or outer side, *2 acyl side, *3 side chain or, on linkers, in order; H or OH if unused. Where a SMILES comes first, the peptide text is derived from it. [ ]: non-standard residue; d: D form. The star is where a group is joined. NHBn(4-(4-Me-thiazol-5-yl)) = Cc1ncsc1-c1ccc(CN*)cc1; NHCH2(1,3-C6H4)CH2CO = O=C(Cc1cccc(CN[*:1])c1)[*:2]; F2Pmp = N[C@@H](Cc1ccc(C(F)(F)P(=O)(O)O)cc1)C(=O)O; Phenylacetyl(4-OH,3-OMe) = COc1cc(CC(=O)*)ccc1O; Benzoyl(3-Br,4-Me) = Cc1ccc(C(=O)*)cc1Br; NH(CH2)9CO = O=C(CCCCCCCCCN[*:1])[*:2]; X1 = Cc1ncsc1-c1ccc([C@H](C)N*)cc1; cisHyp = O=C(O)[C@@H]1C[C@H](O)CN1; Hyp = O=C(O)[C@@H]1C[C@@H](O)CN1; X2 = O=C(CCN1CCN([*:1])CC1)[*:2]; dHyp = O=C(O)[C@H]1C[C@H](O)CN1; dTle = CC(C)(C)[C@@H](N)C(=O)O; Tle = CC(C)(C)[C@H](N)C(=O)O; Ahp = NCCCCCCC(=O)O; PEG1 = NCCOCCC(=O)O

- Compound: "COc1cc(CC(=O)N[C@@H](Cc2ccccc2)C(=O)N[C@@H](Cc2ccc(C(F)(F)P(=O)(O)O)cc2)C(=O)N[C@@H](CCCCNC(=O)c2ccc(C)c(Br)c2)C(=O)NCCOCCC(=O)N[C@H](C(=O)N2C[C@H](O)C[C@H]2C(=O)NCc2ccc(-c3scnc3C)cc2)C(C)(C)C)ccc1O [Compound 28] ({Phenylacetyl(4-OH,3-OMe)}-F[F2Pmp]K(Benzoyl(3-Br,4-Me))[PEG1][Tle][Hyp]-{NHBn(4-(4-Me-thiazol-5-yl))})"
  IC50, nM: 15.4
- Compound: "COc1cc(CC(=O)N[C@@H](Cc2ccccc2)C(=O)N[C@@H](Cc2ccc(C(F)(F)P(=O)(O)O)cc2)C(=O)N[C@@H](CCCCNC(=O)c2ccc(C)c(Br)c2)C(=O)NCCCCCCCCCC(=O)N[C@H](C(=O)N2C[C@H](O)C[C@H]2C(=O)NCc2ccc(-c3scnc3C)cc2)C(C)(C)C)ccc1O [Compound 14] ({Phenylacetyl(4-OH,3-OMe)}-F[F2Pmp]K(Benzoyl(3-Br,4-Me))[NH(CH2)9CO][Tle][Hyp]-{NHBn(4-(4-Me-thiazol-5-yl))})"
  IC50, nM: 10.3
- Compound: "COc1cc(CC(=O)N[C@@H](Cc2ccccc2)C(=O)N[C@@H](Cc2ccc(C(F)(F)P(=O)(O)O)cc2)C(=O)N[C@@H](CCCCNC(=O)c2ccc(C)c(Br)c2)C(=O)NCc2cccc(CC(=O)N[C@H](C(=O)N3C[C@H](O)C[C@H]3C(=O)N[C@@H](C)c3ccc(-c4scnc4C)cc3)C(C)(C)C)c2)ccc1O [Compound 47] ({Phenylacetyl(4-OH,3-OMe)}-F[F2Pmp]K(Benzoyl(3-Br,4-Me))[NHCH2(1,3-C6H4)CH2CO][Tle][Hyp]-X1)"
  IC50, nM: 24.2
- Compound: "COc1cc(CC(=O)N[C@@H](Cc2ccccc2)C(=O)N[C@@H](Cc2ccc(C(F)(F)P(=O)(O)O)cc2)C(=O)N[C@@H](CCCCNC(=O)c2ccc(C)c(Br)c2)C(=O)NCCOCCC(=O)N[C@H](C(=O)N2C[C@H](O)C[C@H]2C(=O)N[C@@H](C)c2ccc(-c3scnc3C)cc2)C(C)(C)C)ccc1O [Compound 27] ({Phenylacetyl(4-OH,3-OMe)}-F[F2Pmp]K(Benzoyl(3-Br,4-Me))[PEG1][Tle][Hyp]-X1)"
  IC50, nM: 15.5
- Compound: "COc1cc(CC(=O)N[C@@H](Cc2ccccc2)C(=O)N[C@@H](Cc2ccc(C(F)(F)P(=O)(O)O)cc2)C(=O)N[C@@H](CCCCNC(=O)c2ccc(C)c(Br)c2)C(=O)N2CCN(CCC(=O)N[C@H](C(=O)N3C[C@H](O)C[C@H]3C(=O)NCc3ccc(-c4scnc4C)cc3)C(C)(C)C)CC2)ccc1O [Compound 56] ({Phenylacetyl(4-OH,3-OMe)}-F[F2Pmp]K(Benzoyl(3-Br,4-Me))[X2][Tle][Hyp]-{NHBn(4-(4-Me-thiazol-5-yl))})"
  IC50, nM: 13.7
- Compound: "COc1cc(CC(=O)N[C@@H](Cc2ccccc2)C(=O)N[C@@H](Cc2ccc(C(F)(F)P(=O)(O)O)cc2)C(=O)N[C@@H](CCCCNC(=O)c2ccc(C)c(Br)c2)C(=O)NCc2cccc(CC(=O)N[C@H](C(=O)N3C[C@@H](O)C[C@H]3C(=O)N[C@@H](C)c3ccc(-c4scnc4C)cc3)C(C)(C)C)c2)ccc1O [cis-47] ({Phenylacetyl(4-OH,3-OMe)}-F[F2Pmp]K(Benzoyl(3-Br,4-Me))[NHCH2(1,3-C6H4)CH2CO][Tle][cisHyp]-X1)"
  IC50, nM: 25.1
- Compound: "COc1cc(CC(=O)N[C@@H](Cc2ccccc2)C(=O)N[C@@H](Cc2ccc(C(F)(F)P(=O)(O)O)cc2)C(=O)N[C@@H](CCCCNC(=O)c2ccc(C)c(Br)c2)C(N)=O)ccc1O [Example 7]"
  IC50, nM: 4.7
- Compound: "COc1cc(CC(=O)N[C@@H](Cc2ccccc2)C(=O)N[C@@H](Cc2ccc(C(F)(F)P(=O)(O)O)cc2)C(=O)N[C@@H](CCCCNC(=O)c2ccc(C)c(Br)c2)C(=O)NCCCCCCC(=O)N[C@@H](C(=O)N2C[C@@H](O)C[C@@H]2C(=O)NCc2ccc(-c3scnc3C)cc2)C(C)(C)C)ccc1O [Compound 10] ({Phenylacetyl(4-OH,3-OMe)}-F[F2Pmp]K(Benzoyl(3-Br,4-Me))[Ahp][dTle][dHyp]-{NHBn(4-(4-Me-thiazol-5-yl))})"
  IC50, nM: 7.4
